biological target: human TPO (HEK-TPOA7 cell lysate) (Homo sapiens); construct: We have transfected the full length of TPO, which is 933 amino acids; expressed in transfected cells; host or cells: HEK293T (clone HEK-TPOA7), lentiviral transduction, CMV promoter; assay: AUR-TPO assay, HEK-TPOA7 cell lysate; type: biochemical; details: IC50, AUR assay, H2O2 40uM, HEK-TPOA7 lyzate, n=2; unit not given in Table S6
experimental-readout: pIC50
Numbers only, as −log10 of the molar value.

Ask: Provide value of pIC50 for this record tested with human TPO (HEK-TPOA7 cell lysate) (Homo sapiens): `Oc1cccc(O)c1`
Reply: 6.44

###

test system: peroxidase activity (TPO) in FRTL-5 cell lysate; assay: TPO luminol (Lumi) assay, FRTL-5 cell lysate; conditions: read-out: Lumi assay IC50, FRTL-5; current study, n ≥ 3; NA = not active up to the highest tested concentration
experimental-readout: pIC50
One number for each entry, as −log10 of the molar value.

Reference set, count: 3
Ask: Return reported pIC50; argument: `Oc1cc(Cl)ccc1Oc1ccc(Cl)cc1Cl`
Reply: 4.17

Ask: Please give the result for `Oc1cccc(O)c1` too.
Reply: 4.80

Ask: Please give the result for O=C(c1ccc(O)cc1O)c1ccc(O)cc1O [BP2, 2,2′-4,4′-tetrahydroxy benzophenone] too.
Reply: 4.53

Report pIC50 for each item below.
1. CC(C)(c1ccc(O)cc1)c1ccc(O)cc1
2. CC(C)(c1cc(Br)c(O)c(Br)c1)c1cc(Br)c(O)c(Br)c1

Reply:
1. 3.84
2. 3.89

Report pIC50 for each item below.
1. Cn1cc[nH]c1=S [MMI, Methimazole, reference compound]
2. CCCc1cc(=O)[nH]c(=S)[nH]1 [PTU, 6-propylthiouracil, reference compound]

Reply:
[5.43, 4.88]

###

target: human TPO (HEK-TPOA7 cell lysate) (Homo sapiens, UniProt P07202); construct: We have transfected the full length of TPO, which is 933 amino acids; expressed in transfected cells; host or cells: HEK293T (clone HEK-TPOA7), lentiviral transduction, CMV promoter; test: AUR-TPO assay, HEK-TPOA7 cell lysate; assay type: biochemical; details: IC50, AUR assay, H2O2 300uM, HEK-TPOA7 lyzate, n=2; unit not given in Table S6
experimental-readout: IC50 (µM)
Give bare numbers, in µM.

Ask: Return reported IC50; argument: `Oc1cccc(O)c1`
Reply: 0.61

Ask: Please give the result for Cn1cc[nH]c1=S [MMI, Methimazole, reference compound] too.
Reply: 1.33

Ask: Please give the result for `CC(C)(c1ccc(O)cc1)c1ccc(O)cc1` too.
Reply: 10.9

Continuing:
Ask: Return reported IC50; argument: `Oc1cc(Cl)ccc1Oc1ccc(Cl)cc1Cl`
Reply: 165

###

target: human TPO (HEK-TPOA7 cell lysate) (Homo sapiens, UniProt P07202); construct: We have transfected the full length of TPO, which is 933 amino acids; expressed in transfected cells; host or cells: HEK293T (clone HEK-TPOA7), lentiviral transduction, CMV promoter; assay: AUR-TPO assay, HEK-TPOA7 cell lysate; type: biochemical; conditions: lysate of cells without hematin pre-treatment; unit inferred; read-out: IC50, HEK-TPOA7, AUR assay, hematin -
Kindly supply the reported pIC50 values for the records listed here.
One number for each entry, as −log10 of the molar value.

Reference set, count: 4
Ask: Return reported pIC50; argument: `CC(C)(c1cc(Br)c(O)c(Br)c1)c1cc(Br)c(O)c(Br)c1`
Reply: 5.09

Ask: Please give the result for `Oc1cccc(O)c1` too.
Reply: 6.44

Ask: Please give the result for Cn1cc[nH]c1=S [MMI, Methimazole, reference compound] too.
Reply: 5.95

Ask: Please give the result for O=C(c1ccc(O)cc1O)c1ccc(O)cc1O [BP2, 2,2′-4,4′-tetrahydroxy benzophenone] too.
Reply: 6.32

Attention now shifts to the item below.
Ask: Return reported pIC50; argument: `CC(C)(c1ccc(O)cc1)c1ccc(O)cc1`
Reply: 5.08

###

molecular target: human TPO (HEK-TPOA7 cell lysate) (Homo sapiens); construct: We have transfected the full length of TPO, which is 933 amino acids; expressed in transfected cells; host or cells: HEK293T (clone HEK-TPOA7), lentiviral transduction, CMV promoter; assay: AUR-TPO assay, HEK-TPOA7 cell lysate; assay type: biochemical; settings: lysate of cells with hematin pre-treatment; unit inferred; read-out: IC50, HEK-TPOA7, AUR assay, hematin +
experimental-readout: IC50
State the value with its unit after it.

Report IC50 for each item below.
1. Oc1cc(Cl)ccc1Oc1ccc(Cl)cc1Cl
2. Oc1cccc(O)c1
3. CC(C)(c1cc(Br)c(O)c(Br)c1)c1cc(Br)c(O)c(Br)c1
4. CC(C)(c1ccc(O)cc1)c1ccc(O)cc1
5. O=C(c1ccc(O)cc1O)c1ccc(O)cc1O [BP2, 2,2′-4,4′-tetrahydroxy benzophenone]

Reply:
1. 197 µM
2. 0.36 µM
3. 8.65 µM
4. 10.6 µM
5. 0.56 µM

Ask: Return reported IC50; argument: Cn1cc[nH]c1=S [MMI, Methimazole, reference compound]
Reply: 1.5 µM

###

system: peroxidase activity (TPO) in Nthy-ori 3-1 cell lysate; assay: TPO luminol (Lumi) assay, Nthy-ori 3-1 cell lysate; settings: read-out: Lumi assay IC50, Nthy-ori 3-1
experimental-readout: pIC50
Give bare numbers, as −log10 of the molar value.

Ask: Return reported pIC50; argument: `CC(C)(c1cc(Br)c(O)c(Br)c1)c1cc(Br)c(O)c(Br)c1`
Reply: 4.11

Attention now shifts to the item below.
Ask: Return reported pIC50; argument: `Oc1cc(Cl)ccc1Oc1ccc(Cl)cc1Cl`
Reply: 4.29

###

Biological target: peroxidase activity (human TPO) in HEK-TPOA7 cell lysate (Homo sapiens, UniProt P07202)
Construct: We have transfected the full length of TPO, which is 933 amino acids; expressed in transfected cells; host or cells: HEK293T (clone HEK-TPOA7), lentiviral transduction, CMV promoter
Sequence (P07202 19-933): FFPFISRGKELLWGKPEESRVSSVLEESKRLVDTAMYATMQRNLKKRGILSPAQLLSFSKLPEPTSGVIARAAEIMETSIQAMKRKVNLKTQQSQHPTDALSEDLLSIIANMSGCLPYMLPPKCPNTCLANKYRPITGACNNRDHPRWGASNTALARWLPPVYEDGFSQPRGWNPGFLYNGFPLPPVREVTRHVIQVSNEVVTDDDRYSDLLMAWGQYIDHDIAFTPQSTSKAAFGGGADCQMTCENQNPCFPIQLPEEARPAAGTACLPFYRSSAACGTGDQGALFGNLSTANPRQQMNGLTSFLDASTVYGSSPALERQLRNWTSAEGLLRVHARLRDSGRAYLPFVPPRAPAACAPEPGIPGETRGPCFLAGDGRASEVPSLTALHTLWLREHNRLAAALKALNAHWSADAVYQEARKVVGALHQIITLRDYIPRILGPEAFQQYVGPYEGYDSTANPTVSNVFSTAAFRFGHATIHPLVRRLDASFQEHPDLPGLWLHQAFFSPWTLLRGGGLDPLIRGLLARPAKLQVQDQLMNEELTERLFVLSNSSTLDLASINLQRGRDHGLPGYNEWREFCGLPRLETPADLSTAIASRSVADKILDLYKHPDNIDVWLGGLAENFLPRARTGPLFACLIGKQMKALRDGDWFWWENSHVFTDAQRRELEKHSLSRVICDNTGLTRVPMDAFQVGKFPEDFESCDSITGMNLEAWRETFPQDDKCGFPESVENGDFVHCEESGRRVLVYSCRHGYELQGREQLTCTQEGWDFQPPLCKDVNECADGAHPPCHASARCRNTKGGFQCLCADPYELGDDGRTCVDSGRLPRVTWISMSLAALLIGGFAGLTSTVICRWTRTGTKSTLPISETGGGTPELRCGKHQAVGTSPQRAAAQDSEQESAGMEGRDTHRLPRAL
Test: TPO luminol (Lumi) assay, HEK-TPOA7 cell lysate
Type: biochemical
Conditions: lysate of cells without hematin pre-treatment; unit inferred; read-out: IC50, HEK-TPOA7, Lumi assay, hematin -
experimental-readout: IC50

Ask: Return reported IC50; argument: `CC(C)(c1ccc(O)cc1)c1ccc(O)cc1`
Reply: 107 µM

Attention now shifts to the item below.
Ask: Return reported IC50; argument: `CC(C)(c1cc(Br)c(O)c(Br)c1)c1cc(Br)c(O)c(Br)c1`
Reply: 107 µM

###

Kindly supply the reported pIC50 values for the records listed here.
target: human TPO (HEK-TPOA7 cell lysate) (Homo sapiens, UniProt P07202); construct: We have transfected the full length of TPO, which is 933 amino acids; expressed in transfected cells; host or cells: HEK293T (clone HEK-TPOA7), lentiviral transduction, CMV promoter; assay: AUR-TPO assay, HEK-TPOA7 cell lysate; assay type: biochemical; details: read-out: IC50, AUR assay, H2O2 300uM; HEK-TPOA7 lyzate, n=2; unit not given in Table S6
Answers are plain numbers, as −log10 of the molar value.

Ask: Provide value of pIC50 for this record tested with human TPO (HEK-TPOA7 cell lysate) (Homo sapiens, UniProt P07202): O=C(c1ccc(O)cc1O)c1ccc(O)cc1O [BP2, 2,2′-4,4′-tetrahydroxy benzophenone]
Reply: 6.19

Attention now shifts to the item below.
Ask: Provide value of pIC50 for this record tested with human TPO (HEK-TPOA7 cell lysate) (Homo sapiens, UniProt P07202): `CC(C)(c1cc(Br)c(O)c(Br)c1)c1cc(Br)c(O)c(Br)c1`
Reply: 5.19
